Molecular target: T1, human TREM2 (triggering receptor expressed on myeloid cells 2) (human) (UniProt Q9NZC2)
T1 sequence (looked up): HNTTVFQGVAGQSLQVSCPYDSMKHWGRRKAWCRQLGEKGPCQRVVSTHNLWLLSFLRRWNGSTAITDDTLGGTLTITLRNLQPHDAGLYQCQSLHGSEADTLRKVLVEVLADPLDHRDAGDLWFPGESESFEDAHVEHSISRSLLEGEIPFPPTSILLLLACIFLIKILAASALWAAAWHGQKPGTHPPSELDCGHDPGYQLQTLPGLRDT
Experiment: 1st screen, 110 nM Ab
Known Binding Signal (fold over 6E7 parental antibody) of a selection of binders
Please give a number only; it is taken to be in fold.

See these solved cases before continuing.
binder | assay_result
6E7 antibody affinity modulation variant V22 (antibody, V domains shown) VH: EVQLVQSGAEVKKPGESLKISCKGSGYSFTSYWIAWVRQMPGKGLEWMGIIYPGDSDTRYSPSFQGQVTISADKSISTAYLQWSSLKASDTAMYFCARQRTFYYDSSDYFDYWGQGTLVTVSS VL: DIQMTQSPSSVSASVGDRVTITCRASQGISSWLAWYQQKPGKAPKLLIYRASSLQNGVPSRFSGSGSGTDFTLTISSLQPEDFATYFCQQADSFPRTFGQGTKLEIK | 0.3
6E7 antibody affinity modulation variant V80 (antibody, V domains shown) VH: EVQLVQSGAEVKKPGESLKISCKGSGYSFTSYWIAWVRQMPGKGLEWMGIIYPGDSDTRYSPSFQGQVTISADKSISTAYLQWSSLKASDTAMYFCARQRNFYYDSSDYFDYWGQGTLVTVSS VL: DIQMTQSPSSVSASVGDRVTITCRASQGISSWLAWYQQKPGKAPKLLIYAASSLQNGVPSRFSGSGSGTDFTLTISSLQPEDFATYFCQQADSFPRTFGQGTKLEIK | 0.59
6E7 antibody affinity modulation variant V18 (antibody, V domains shown) VH: EVQLVQSGAEVKKPGESLKISCKGSGYSFTSYHIAWVRQMPGKGLEWMGIIYPGDSDTRYSPSFQGQVTISADKSISTAYLQWSSLKASDTAMYFCARQRTFYYDSSDYFDYWGQGTLVTVSS VL: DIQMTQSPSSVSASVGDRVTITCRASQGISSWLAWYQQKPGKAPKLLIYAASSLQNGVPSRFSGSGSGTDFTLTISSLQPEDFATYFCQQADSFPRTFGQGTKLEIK | 0.17
6E7 antibody affinity modulation variant V35 (antibody, V domains shown) VH: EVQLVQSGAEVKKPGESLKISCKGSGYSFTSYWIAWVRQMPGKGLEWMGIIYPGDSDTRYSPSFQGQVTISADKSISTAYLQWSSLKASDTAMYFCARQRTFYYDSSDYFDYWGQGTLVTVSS VL: DIQMTQSPSSVSASVGDRVTITCRASQGISSWLAWYQQKPGKAPKLLIYAASSLQNGVPSRFSGSGSGTDFTLTISSLQPEDFATYFCQQAYSFPRTFGQGTKLEIK | 0.21
6E7 antibody affinity modulation variant V66 (antibody, V domains shown) VH: EVQLVQSGAEVKKPGESLKISCKGSGTSFTSYWIAWVRQMPGKGLEWMGIIYPGDSDTRYSPSFQGQVTISADKSISTAYLQWSSLKASDTAMYFCARQRTFYYDSSDYFDYWGQGTLVTVSS VL: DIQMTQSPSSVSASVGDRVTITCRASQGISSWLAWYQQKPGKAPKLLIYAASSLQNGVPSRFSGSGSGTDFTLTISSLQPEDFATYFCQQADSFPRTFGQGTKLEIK | 0.25
6E7 antibody affinity modulation variant V55 (antibody, V domains shown) VH: EVQLVQSGAEVKKPGESLKISCKGSGYSFTSYWIAWVRQMPGKGLEWMGIIYPGDSDTIYSPSHQGQVTISADKSISTAYLQWSSLKASDTAMYFCARQRTFYYDSSDYFDYWGQGTLVTVSS VL: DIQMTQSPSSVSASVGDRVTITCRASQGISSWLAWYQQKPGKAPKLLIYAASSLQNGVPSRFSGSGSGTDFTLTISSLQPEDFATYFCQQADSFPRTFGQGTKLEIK | 0.24

Q. Can you share its Binding Signal (fold over 6E7 parental antibody)? I mean this binder: 6E7 antibody affinity modulation variant V54 (antibody, V domains shown) VH: EVQLVQSGAEVKKPGESLKISCKGSGYSFTSQWIAWVRQMPGKGLEWMGIIYPGDSDTRYSPSFQGQVTISADKSISTAYLQWSSLKASDTAMYFCARQRTFYYDSSDYFDYWGQGTLVTVSS VL: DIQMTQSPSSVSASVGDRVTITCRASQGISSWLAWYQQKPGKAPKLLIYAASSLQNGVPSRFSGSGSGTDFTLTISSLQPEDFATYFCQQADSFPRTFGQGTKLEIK
A. 0.55

Q. Now try 6E7 antibody affinity modulation variant V23 (antibody, V domains shown) VH: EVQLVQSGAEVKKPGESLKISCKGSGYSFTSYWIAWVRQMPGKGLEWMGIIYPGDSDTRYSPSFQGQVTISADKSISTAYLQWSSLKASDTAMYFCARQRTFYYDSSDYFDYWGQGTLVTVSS VL: DIQMTQSPSSVSASVGDRVTITCRASQGISSWLAWYQQKPGKAPKLLIYAASSLQNGVPSRFSGSGSGTDFTLTISSLQPEDFATYFCQQADSFPLTFGQGTKLEIK .
A. 0.4

Q. Now try 6E7 antibody affinity modulation variant V70 (antibody, V domains shown) VH: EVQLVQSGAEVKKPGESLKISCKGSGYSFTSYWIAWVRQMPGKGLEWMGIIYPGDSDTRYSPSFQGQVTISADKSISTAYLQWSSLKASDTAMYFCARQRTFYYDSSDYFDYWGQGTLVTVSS VL: DIQMTQSPSSVSASVGDRVTITCRASQGISSWLAWYQQKPGKAPKLLIYAAGSLQNGVPSRFSGSGSGTDFTLTISSLQPEDFATYFCQQADSFPRTFGQGTKLEIK .
A. 0.79

Q. Now try 6E7 antibody affinity modulation variant V42 (antibody, V domains shown) VH: EVQLVQSGAEVKKPGESLKISCKGSGYSFTSAWIAWVRQMPGKGLEWMGIIYPGDSDTRYSPSFQGQVTISADKSISTAYLQWSSLKASDTAMYFCARQRTFYYDSSDYFDYWGQGTLVTVSS VL: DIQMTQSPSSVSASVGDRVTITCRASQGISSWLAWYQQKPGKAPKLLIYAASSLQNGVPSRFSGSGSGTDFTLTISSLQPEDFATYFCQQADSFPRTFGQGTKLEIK .
A. 0.45
